Biological target: Diacylglycerol O-acyltransferase 2 (Homo sapiens, UniProt Q96PD7)
Sequence (Q96PD7 whole entry): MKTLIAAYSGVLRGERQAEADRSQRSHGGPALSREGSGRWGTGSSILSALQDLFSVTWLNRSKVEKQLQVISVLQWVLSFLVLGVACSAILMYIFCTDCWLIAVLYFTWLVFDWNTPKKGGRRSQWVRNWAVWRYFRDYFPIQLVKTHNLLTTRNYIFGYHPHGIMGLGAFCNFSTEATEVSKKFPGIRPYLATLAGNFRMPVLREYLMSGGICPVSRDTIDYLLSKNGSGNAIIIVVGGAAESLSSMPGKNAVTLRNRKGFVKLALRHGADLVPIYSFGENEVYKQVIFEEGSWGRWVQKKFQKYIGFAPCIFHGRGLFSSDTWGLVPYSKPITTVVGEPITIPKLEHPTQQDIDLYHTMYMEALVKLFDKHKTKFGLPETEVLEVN
value type: IC50 (nM)
// units = nM; emit number, no label

Record CC(C)n1nc(-c2cccc(OC(F)F)c2)c2ncc(C(=O)NC3(C)CCS(=O)(=O)CC3)cc21 [US11787810, Example 32] , field IC50: 4.3
